Cited source for all entries: paper PMC9146426

- target of assay: cereblon (Homo sapiens)
- Construct: cereblon/DDB1-CUL4A-Rbx1 complex; with DDB1-CUL4A-Rbx1
- Sequence (Q96SW2 whole entry): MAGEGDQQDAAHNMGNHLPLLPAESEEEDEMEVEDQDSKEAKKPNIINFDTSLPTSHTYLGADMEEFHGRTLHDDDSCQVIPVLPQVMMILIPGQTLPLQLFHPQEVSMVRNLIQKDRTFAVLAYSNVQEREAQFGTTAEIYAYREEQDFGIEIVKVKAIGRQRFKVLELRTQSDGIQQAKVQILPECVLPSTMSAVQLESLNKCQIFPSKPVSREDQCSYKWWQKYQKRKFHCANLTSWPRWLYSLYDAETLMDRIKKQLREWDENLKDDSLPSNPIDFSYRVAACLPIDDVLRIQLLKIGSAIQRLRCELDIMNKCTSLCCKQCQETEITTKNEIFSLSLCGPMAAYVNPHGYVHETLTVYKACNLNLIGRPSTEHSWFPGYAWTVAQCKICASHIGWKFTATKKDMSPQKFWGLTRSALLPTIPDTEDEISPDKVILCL
- Sequence (Q16531 2-1140 partner): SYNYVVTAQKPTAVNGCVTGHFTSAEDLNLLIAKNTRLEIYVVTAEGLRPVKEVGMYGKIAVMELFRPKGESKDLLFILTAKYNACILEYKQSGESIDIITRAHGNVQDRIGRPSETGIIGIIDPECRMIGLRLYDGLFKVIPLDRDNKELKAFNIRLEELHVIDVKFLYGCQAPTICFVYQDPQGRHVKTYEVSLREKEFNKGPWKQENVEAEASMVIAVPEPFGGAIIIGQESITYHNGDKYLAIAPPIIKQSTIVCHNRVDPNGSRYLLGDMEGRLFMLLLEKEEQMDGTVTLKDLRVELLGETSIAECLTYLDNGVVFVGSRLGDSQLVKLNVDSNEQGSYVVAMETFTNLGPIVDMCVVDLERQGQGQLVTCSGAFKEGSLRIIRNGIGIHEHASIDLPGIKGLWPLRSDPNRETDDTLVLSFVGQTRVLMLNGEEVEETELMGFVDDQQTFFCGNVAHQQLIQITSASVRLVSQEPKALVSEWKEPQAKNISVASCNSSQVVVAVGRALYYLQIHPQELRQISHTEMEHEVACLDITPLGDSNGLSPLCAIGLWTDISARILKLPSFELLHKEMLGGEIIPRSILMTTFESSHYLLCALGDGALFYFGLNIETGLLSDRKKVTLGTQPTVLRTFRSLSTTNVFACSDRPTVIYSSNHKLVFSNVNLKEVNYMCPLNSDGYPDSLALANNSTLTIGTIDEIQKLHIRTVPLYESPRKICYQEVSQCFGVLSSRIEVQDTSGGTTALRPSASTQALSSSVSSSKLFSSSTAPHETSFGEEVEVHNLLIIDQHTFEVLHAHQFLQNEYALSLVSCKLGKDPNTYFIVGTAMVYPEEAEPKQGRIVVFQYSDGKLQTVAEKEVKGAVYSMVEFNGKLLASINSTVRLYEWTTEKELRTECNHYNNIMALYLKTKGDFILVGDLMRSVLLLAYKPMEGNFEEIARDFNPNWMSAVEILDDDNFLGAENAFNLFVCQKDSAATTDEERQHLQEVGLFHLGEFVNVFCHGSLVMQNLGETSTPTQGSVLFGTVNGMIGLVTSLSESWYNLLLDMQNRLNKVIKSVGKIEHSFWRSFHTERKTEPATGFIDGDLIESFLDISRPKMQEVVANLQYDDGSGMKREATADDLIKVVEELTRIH
- Sequence (Q13619 whole entry partner): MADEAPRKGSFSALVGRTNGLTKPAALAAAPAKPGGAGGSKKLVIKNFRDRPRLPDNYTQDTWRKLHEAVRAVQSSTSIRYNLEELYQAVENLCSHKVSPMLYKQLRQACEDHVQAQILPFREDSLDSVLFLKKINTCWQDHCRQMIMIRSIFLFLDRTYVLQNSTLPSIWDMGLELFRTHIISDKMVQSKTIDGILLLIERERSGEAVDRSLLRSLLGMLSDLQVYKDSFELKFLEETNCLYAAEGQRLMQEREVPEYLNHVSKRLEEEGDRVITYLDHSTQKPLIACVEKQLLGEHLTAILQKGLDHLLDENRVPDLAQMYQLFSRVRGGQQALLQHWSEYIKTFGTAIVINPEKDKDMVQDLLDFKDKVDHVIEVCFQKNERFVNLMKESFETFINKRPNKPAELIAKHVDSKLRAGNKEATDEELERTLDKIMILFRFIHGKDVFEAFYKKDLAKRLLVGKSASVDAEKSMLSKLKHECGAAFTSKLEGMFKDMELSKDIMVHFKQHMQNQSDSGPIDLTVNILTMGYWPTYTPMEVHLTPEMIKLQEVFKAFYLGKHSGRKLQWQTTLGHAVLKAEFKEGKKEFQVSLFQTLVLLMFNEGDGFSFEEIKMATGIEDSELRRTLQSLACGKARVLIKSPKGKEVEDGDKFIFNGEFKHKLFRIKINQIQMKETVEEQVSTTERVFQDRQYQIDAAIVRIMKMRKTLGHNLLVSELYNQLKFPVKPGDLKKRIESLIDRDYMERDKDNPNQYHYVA
- Sequence (P62877 whole entry partner): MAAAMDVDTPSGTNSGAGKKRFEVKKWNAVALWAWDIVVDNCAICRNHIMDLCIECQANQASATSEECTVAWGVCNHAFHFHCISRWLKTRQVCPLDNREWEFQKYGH
- protocol details: AlphaScreen bead-based cereblon binding assay (BPS Bioscience #[…]) with BRD3

| compound | IC50 (nM) |
| --- | --- |
| Nc1cccc2c1C(=S)N(C1CCC(=S)NC1=O)C2=O (centres unmarked) [3,6′-DP, 3,6′-dithiopomalidomide] | 940 |
| Nc1cccc2c1C(=O)N(C1CCC(=S)NC1=O)C2=S (centres unmarked) [1,6′-DP, 1,6′-dithiopomalidomide] | 1520 |
